organism: Mus musculus; test: Thymidine Influx Inhibition constant for the compound in fresh Murine Erythrocytes
assay_metric: Ki (µM)
Answers are plain numbers, in µM.

Some solved cases for reference:
1) CO[C@@H]1N(C2CC(N=[N+]=[N-])C(CO)O2)C(=O)NC(=O)[C@@]1(C)Br (stereo not given in full) | 500
2) CO[C@H]1N(C2CC(N=[N+]=[N-])C(CO)O2)C(=O)NC(=O)[C@]1(C)I (stereo not given in full) | 350
3) CO[C@H]1N(C2CC(N=[N+]=[N-])C(CO)O2)C(=O)NC(=O)[C@]1(C)Cl (stereo not given in full) | 360

Switching to the query record.
Record summary for Cc1cn([C@H]2C[C@H](N=[N+]=[N-])[C@@H](CO)O2)c(=O)[nH]c1=O : reported Ki = 1330
